These data points were gathered from PubChem BioAssay.

tested on: transactivating tegument protein VP16 (Human herpesvirus 1), Gal4-VP16 luciferase reporter; experiment: VP16 transactivation inhibitors, counter-screen for SRC3 inhibitor project, cell-based, luminescence, high throughput (AID 588794); conditions: mammalian cells, VP16-driven luciferase reporter luminescence; at 3.6 µM; hits give high values
Reported inhibition values for a set of compounds
Respond numerically; units are % and should not be typed.

INSERT INTO measurements (smiles_code, assayed_target, numeric_readout) VALUES
  ('Nc1ncnc(NCc2ccccc2)c1[N+](=O)[O-]', 'transactivating tegument protein VP16 (Human herpesvirus 1), Gal4-VP16 luciferase reporter', 26.7),
  ('C=CCSc1nsc(NC(=O)Nc2ccc(F)cc2)n1', 'transactivating tegument protein VP16 (Human herpesvirus 1), Gal4-VP16 luciferase reporter', -4.12);

Could you now look at the following compound, please?
Qu. For "Cn1nnnc1N=N/C(=N/Nc1ccccc1)c1ccccc1" , write its inhibition.
Ans. 42.9
